The values you see were collected from the Immune Epitope Database (IEDB).

# system: HLA-A*02:12
# assay_explanation: IEDB peptide-MHC binding, purified MHC/direct/fluorescence; filed as Kd, often an IC50 or EC50 that approximates it; bounds were set here for any values at or beyond the usual limits of such assays
# measurement_parameters: source organism: Reston ebolavirus

{"columns": ["record_sequence", "Kd"],
 "data": [
  ["KHDFIDNPL", "≥ 20 µM"]
]}

###

# system: HLA-B*27:03
# assay_explanation: IEDB peptide-MHC binding, purified MHC/direct/fluorescence; filed as Kd, often an IC50 or EC50 that approximates it; bounds were set here for any values at or beyond the usual limits of such assays
# measurement_parameters: source organism: Listeria monocytogenes serotype 4b str. H7858
pKd: −log10 of the molar value.
recorded_metric: pKd

{"columns": ["record_sequence", "result"],
 "data": [
  ["AALEGLSGF", "≤ 4.70"]
]}

###

# system: HLA-B*07:02
# assay_explanation: IEDB peptide-MHC binding, purified MHC/direct/fluorescence; filed as Kd, often an IC50 or EC50 that approximates it; bounds were set here for any values at or beyond the usual limits of such assays
# measurement_parameters: source organism: Orthohantavirus puumalaense
pKd: −log10 of the molar value.
recorded_metric: pKd

{"columns": ["record_sequence", "recorded_metric", "result_number"],
 "data": [
  ["SPVMGVIGF", "pKd", 7.22]
]}

###

# system: HLA-B*46:01
# assay_explanation: IEDB peptide-MHC binding, purified MHC/direct/fluorescence; filed as Kd, often an IC50 or EC50 that approximates it; bounds were set here for any values at or beyond the usual limits of such assays
# measurement_parameters: source organism: Mycobacterium tuberculosis

{"columns": ["record_sequence", "Kd"],
 "data": [
  ["RPRLWRSVI", "≥ 20 µM"]
]}

###

# system: HLA-B*58:01
# assay_explanation: IEDB peptide-MHC binding, purified MHC/direct/fluorescence; filed as Kd, often an IC50 or EC50 that approximates it; bounds were set here for any values at or beyond the usual limits of such assays
# measurement_parameters: source organism: Cryptosporidium parvum
recorded_metric: Kd

{"columns": ["record_sequence", "recorded_metric", "result"],
 "data": [
  ["VPPTNSINK", "Kd", "≥ 20 µM"]
]}

###

# system: HLA-B*57:01
# assay_explanation: IEDB peptide-MHC binding, purified MHC/direct/fluorescence; filed as Kd, often an IC50 or EC50 that approximates it; bounds were set here for any values at or beyond the usual limits of such assays
# measurement_parameters: source organism: Salmonella enterica

{"columns": ["record_sequence", "Kd"],
 "data": [
  ["TTHHTIPLL", "4 µM"]
]}

###

# system: HLA-B*27:05
# assay_explanation: IEDB peptide-MHC binding, purified MHC/competitive/radioactivity; bounds were set here for any values at or beyond the usual limits of such assays
# measurement_parameters: source organism: Human papillomavirus 16
recorded_metric: IC50 (nM)

{"columns": ["record_sequence", "unit_info", "result_number"],
 "data": [
  ["YRHYCYSL", "nM", 12]
]}

###

# system: HLA-A*11:01
# assay_explanation: IEDB peptide-MHC binding, purified MHC/direct/fluorescence; filed as Kd, often an IC50 or EC50 that approximates it; bounds were set here for any values at or beyond the usual limits of such assays
# measurement_parameters: source organism: Mycobacterium tuberculosis
recorded_metric: Kd

{"columns": ["record_sequence", "system", "recorded_metric", "result"],
 "data": [
  ["RPRLWRSVI", "HLA-A*11:01", "Kd", "≥ 20 µM"]
]}

###

# system: HLA-B*15:01
# assay_explanation: IEDB peptide-MHC binding, purified MHC/competitive/radioactivity; filed as Kd, often an IC50 or EC50 that approximates it; bounds were set here for any values at or beyond the usual limits of such assays
# measurement_parameters: source organism: Dengue virus 3 Singapore/8120/1995
pKd: −log10 of the molar value.

{"columns": ["record_sequence", "pKd"],
 "data": [
  ["IMKIGIGVL", 6.91]
]}

###

# system: HLA-B*57:01
# assay_explanation: IEDB peptide-MHC binding, purified MHC/direct/fluorescence; filed as Kd, often an IC50 or EC50 that approximates it; bounds were set here for any values at or beyond the usual limits of such assays
# measurement_parameters: source organism: Yellow fever virus

{"columns": ["record_sequence", "Kd / nM"],
 "data": [
  ["RQLQKIERW", 405]
]}

###

# system: HLA-B*39:01
# assay_explanation: IEDB peptide-MHC binding, purified MHC/competitive/fluorescence; filed as Kd, often an IC50 or EC50 that approximates it; bounds were set here for any values at or beyond the usual limits of such assays
# measurement_parameters: source organism: Escherichia coli O157:H7 str. Sakai

{"columns": ["record_sequence", "Kd"],
 "data": [
  ["HQIWLALRY", "≥ 20 µM"]
]}

###

The following sequences are shown together with reported Kd values.
# system: HLA-C*03:03
# assay_explanation: IEDB peptide-MHC binding, purified MHC/direct/fluorescence; filed as Kd, often an IC50 or EC50 that approximates it; bounds were set here for any values at or beyond the usual limits of such assays
# measurement_parameters: source organism: Mycobacterium tuberculosis variant bovis BCG str. Pasteur 1173P2

{"columns": ["record_sequence", "system", "unit_info", "comparison_sign", "Kd"],
 "data": [
  ["YLAEGHACL", "HLA-C*03:03", "nM", "=", 2],
  ["SAFGGGNAF", "HLA-C*03:03", "nM", "≤", 1]
]}

###

# system: HLA-B*15:01
# assay_explanation: IEDB peptide-MHC binding, purified MHC/direct/fluorescence; filed as Kd, often an IC50 or EC50 that approximates it; bounds were set here for any values at or beyond the usual limits of such assays
# measurement_parameters: source organism: Zaire ebolavirus
pKd: −log10 of the molar value.

{"columns": ["record_sequence", "pKd"],
 "data": [
  ["GQFLSFASL", 7.49]
]}

###

# system: HLA-B*73:01
# assay_explanation: IEDB peptide-MHC binding, purified MHC/direct/fluorescence; filed as Kd, often an IC50 or EC50 that approximates it; bounds were set here for any values at or beyond the usual limits of such assays
# measurement_parameters: source organism: Salmonella enterica subsp. enterica serovar Typhimurium
pKd: −log10 of the molar value.

{"columns": ["record_sequence", "pKd"],
 "data": [
  ["RRRQWASCM", "≤ 4.70"]
]}

###

# system: HLA-B*57:01
# assay_explanation: IEDB peptide-MHC binding, purified MHC/competitive/radioactivity; filed as Kd, often an IC50 or EC50 that approximates it; bounds were set here for any values at or beyond the usual limits of such assays
# measurement_parameters: source organism: Dengue virus 1 Brazil/97-11/1997
recorded_metric: Kd

{"columns": ["record_sequence", "result"],
 "data": [
  ["GTSHNILVEV", "0.758 µM"],
  ["KSYAQMWQL", "0.00198 µM"],
  ["EAVEDERFW", "0.0845 µM"],
  ["ASSALLWMAS", "17.1 µM"]
]}

###

# system: HLA-B*39:01
# assay_explanation: IEDB peptide-MHC binding, purified MHC/direct/fluorescence; filed as Kd, often an IC50 or EC50 that approximates it; bounds were set here for any values at or beyond the usual limits of such assays
# measurement_parameters: source organism: Marburg virus - Musoke, Kenya, 1980
pKd: −log10 of the molar value.

{"columns": ["record_sequence", "system", "pKd"],
 "data": [
  ["THYSGNIVH", "HLA-B*39:01", 7.56]
]}

###

# system: HLA-A*02:12
# assay_explanation: IEDB peptide-MHC binding, purified MHC/direct/fluorescence; filed as Kd, often an IC50 or EC50 that approximates it; bounds were set here for any values at or beyond the usual limits of such assays
# measurement_parameters: source organism: Brucella suis 1330
pKd: −log10 of the molar value.

{"columns": ["record_sequence", "system", "pKd"],
 "data": [
  ["MHCDFAFWV", "HLA-A*02:12", "≤ 4.70"]
]}

###

# system: HLA-A*69:01
# assay_explanation: IEDB peptide-MHC binding, purified MHC/direct/fluorescence; filed as Kd, often an IC50 or EC50 that approximates it; bounds were set here for any values at or beyond the usual limits of such assays
# measurement_parameters: source organism: Salmonella enterica subsp. enterica serovar Typhimurium
recorded_metric: Kd (nM)

{"columns": ["record_sequence", "result_number"],
 "data": [
  ["FAHELEMLC", 720],
  ["ALSMADIFI", 1080]
]}

###

# system: HLA-A*31:01
# assay_explanation: IEDB peptide-MHC binding, purified MHC/competitive/fluorescence; bounds were set here for any values at or beyond the usual limits of such assays
# measurement_parameters: source organism: Homo sapiens

{"columns": ["record_sequence", "unit_info", "comparison_sign", "IC50"],
 "data": [
  ["KVADVDLAVPV", "µM", "≥", 20],
  ["GSSDFQVHFLK", "µM", "=", 1.05]
]}
